# Measurement target: MOR (Homo sapiens, UniProt P35372)
# Sequence (P35372 whole entry): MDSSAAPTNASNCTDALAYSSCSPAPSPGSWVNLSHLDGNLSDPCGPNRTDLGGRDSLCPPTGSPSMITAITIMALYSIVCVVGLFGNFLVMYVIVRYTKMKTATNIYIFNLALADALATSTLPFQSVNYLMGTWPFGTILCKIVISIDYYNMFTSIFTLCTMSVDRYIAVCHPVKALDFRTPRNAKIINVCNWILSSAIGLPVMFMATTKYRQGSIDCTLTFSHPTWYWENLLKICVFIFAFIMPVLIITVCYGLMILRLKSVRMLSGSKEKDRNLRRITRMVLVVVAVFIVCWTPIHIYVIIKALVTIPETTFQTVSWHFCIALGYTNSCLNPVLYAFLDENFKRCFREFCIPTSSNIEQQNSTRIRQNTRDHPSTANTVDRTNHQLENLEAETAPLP
# Sequence (P32121 whole entry partner): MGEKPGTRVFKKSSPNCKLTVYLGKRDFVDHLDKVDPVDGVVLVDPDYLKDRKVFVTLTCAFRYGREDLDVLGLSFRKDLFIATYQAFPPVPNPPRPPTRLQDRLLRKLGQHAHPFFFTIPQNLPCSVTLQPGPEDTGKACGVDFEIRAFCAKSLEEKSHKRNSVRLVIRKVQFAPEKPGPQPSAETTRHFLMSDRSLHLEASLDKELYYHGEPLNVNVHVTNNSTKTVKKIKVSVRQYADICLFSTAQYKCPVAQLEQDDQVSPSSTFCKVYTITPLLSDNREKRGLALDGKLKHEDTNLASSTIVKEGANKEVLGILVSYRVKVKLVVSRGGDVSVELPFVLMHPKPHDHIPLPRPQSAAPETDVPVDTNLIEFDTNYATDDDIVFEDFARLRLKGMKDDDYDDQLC
# Assay name: cell-based
# Set-up: host or cells: CHO-K1 OPRM1 β-arrestin-2 cells
Measured property: Bias Factor
# output: bare number, no unit

// worked examples, Bias Factor included
COC(=O)[C@@H]1C=C(OC(=O)c2ccc3c(c2)C(=O)NC3)C(=O)[C@H]2[C@@]1(C)CC[C@H]1C(=O)O[C@H](c3ccoc3)C[C@]21C	0.65
COC(=O)[C@@H]1C=C(OC(=O)c2ccc(CO)cc2)C(=O)[C@H]2[C@@]1(C)CC[C@H]1C(=O)O[C@H](c3ccoc3)C[C@]21C	0.14

Alright, here's another molecule for you.
Which measured Bias Factor belongs to `COCc1ccc(C(=O)OC2=C[C@@H](C(=O)OC)[C@]3(C)CC[C@H]4C(=O)O[C@H](c5ccoc5)C[C@]4(C)[C@H]3C2=O)cc1` , tested on MOR (Homo sapiens, UniProt P35372)?
1.98
